Attribute: T/C
Tested on: P388 leukemia ip, CD2F1 mice, survival T/C
test_name: NCI In Vivo Anticancer Drug Screen. Data for tumor model P388 Leukemia (intraperitoneal) in CD2F1 (CDF1) mice
condition: endpoint: median survival time; dose: 100.0 mg/kg/injection; schedule: Q01DX009 (ip); vehicle: saline with Tween-80; higher = longer survival
Toxic doses and inconclusive results are not listed.

compound: Cc1ccc(C(O)(c2nc3ccccc3s2)c2nc3ccccc3s2)cc1
T/C: 112 % of control
//
compound: O=c1[nH][nH]c2c1SCc1ccccc1-2
T/C: 117 % of control
//
compound: O=C(c1ccccc1)C(C(c1ccccc1)N1CCOCC1)N1CCOCC1 (stereo not given)
T/C: 94 % of control
//
compound: COc1ccc(OC)c(NC(=O)Oc2cccc(NC(C)=O)c2)c1
T/C: 104 % of control
//
compound: Cn1c(=O)[nH]c(=O)c2nc(-c3ccc(Cl)c(Cl)c3)cnc21
T/C: 101 % of control
//
compound: CC(=O)N(O)c1ccccc1-c1ccccc1
T/C: 99 % of control
//
compound: CCCCCCCCCCCCCCCCSc1ccncc1NN=O
T/C: 113 % of control
//
compound: NOCc1cccc(Cl)c1
T/C: 87 % of control
//
compound: C=CC(=NC(C)(C)C)Nc1ccc(Cl)cc1
T/C: 94 % of control
//
compound: NC(Cc1ccc(Cl)cc1)c1nn[nH]n1 (stereo not given)
T/C: 101 % of control
//
compound: Nc1nc(N)c(N=Nc2ccccc2)c(=O)[nH]1
T/C: 90 % of control
//
compound: CCC(C)N(C)/N=N/c1nc[nH]c1C(N)=O (stereo not given)
T/C: 115 % of control
//
compound: Cc1noc(NS(=O)(=O)c2ccc(N=Nc3cc(N=Nc4ccc(S(=O)(=O)Nc5onc(C)c5C)cc4)c4c(NC(=O)C(Cl)Cl)cccc4c3OC(=O)C(Cl)Cl)cc2)c1C
T/C: 100 % of control
//
compound: O=C1OC(c2ccc(Cl)cc2)=N/C1=C\c1ccccc1
T/C: 90 % of control
//
compound: O=C1C=CC(=O)C2=C1C1C3=C(C(=O)C=CC3=O)C2c2ccccc21
T/C: 106 % of control
//
compound: O=C1c2ccccc2C(=O)N1CN1C(=O)c2ccccc2C1=O
T/C: 90 % of control
//
compound: CC(C)C(Sc1nc(N)nc2nc[nH]c12)C(=O)O (stereo not given)
T/C: 95 % of control
//
compound: O=P(=O)OP(=O)=O.[O]=[W](=[O])=[O]
T/C: 95 % of control
//
compound: CC(O)C(NC(=O)OC(C)(C)C)C(=O)ON1C(=O)CCC1=O (stereo not given)
T/C: 101 % of control
//
compound: NN(Cc1ccccc1[N+](=O)[O-])c1ccccc1
T/C: 86 % of control
//
compound: COc1ccc(-c2sc(/N=C/c3cc(Br)cc(Br)c3O)c(C#N)c2C)cc1OC
T/C: 94 % of control
//
compound: CCCCCCCC[As](CCCCCCCC)SCC1OC(OC(C)=O)C(OC(C)=O)C(OC(C)=O)C1OC(C)=O (stereo not given)
T/C: 96 % of control
//
compound: CN(C)c1ccc(CN2CCCN(Cc3ccc(N(C)C)cc3)C2c2cc(Cl)ccc2O)cc1
T/C: 95 % of control
//
compound: [Br][Pb]([Br])([c]1ccccc1)[c]1ccccc1
T/C: 98 % of control
//
compound: CC1=NNB(O)c2sccc21
T/C: 100 % of control
